assay: Growth inhibition of human HaCaT cells incubated for 24 hrs by MTT assay; assay type: toxicity, cell-based
recordedMetric: GI50 at 24 h (µM)
Record the value in µM, omitting the unit from your answer.

Param item = `CN1CCN(C(=O)N[C@@H](Cc2ccccc2)C(=O)N[C@H](/C=C/S(=O)(=O)c2ccccc2)CCCCNS(=O)(=O)c2cccc3ccccc23)CC1` ; retrieve measured GI50 at 24 h.
28.7
